Molecular target: human secretin receptor (hSCTR) (human, UniProt P47872 23-440)
Sequence (P47872 23-440): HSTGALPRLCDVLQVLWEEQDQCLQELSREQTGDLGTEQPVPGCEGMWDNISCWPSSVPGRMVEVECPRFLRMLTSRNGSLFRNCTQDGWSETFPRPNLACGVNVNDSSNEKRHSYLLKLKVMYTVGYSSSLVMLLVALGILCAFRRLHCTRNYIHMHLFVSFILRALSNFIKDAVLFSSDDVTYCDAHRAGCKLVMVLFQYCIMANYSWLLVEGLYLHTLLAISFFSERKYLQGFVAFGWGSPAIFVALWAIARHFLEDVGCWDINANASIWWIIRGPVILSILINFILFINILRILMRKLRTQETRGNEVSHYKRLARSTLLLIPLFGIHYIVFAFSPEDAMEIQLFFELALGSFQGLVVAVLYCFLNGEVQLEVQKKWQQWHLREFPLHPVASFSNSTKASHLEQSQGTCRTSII
Experiment: cell-based or functional assay
Numbered stars: 1 amine (or outer) side, 2 acyl side, 3 side chain; on linkers, the order of the positions; unused ones are H or OH. Square brackets hold non-standard residues; d marks the D form. Side chains are listed from the residue outwards. Ends that are not written are not given here. * marks the point of attachment. C20 diacid = O=C(O)CCCCCCCCCCCCCCCCCCC(=O)*; γGlu = O=C(O)[C@H](CCC(=O)[*:2])N[*:1]; AEEA = NCCOCCOCC(=O)O; Aib = CC(C)(N)C(=O)O
Exercise: for every item that follows, state its recorded pEC50 hSCTR.

A selection of reference data follows.
1. H[Aib]EGTFTSDVSNLKEEA[Aib]LQRFLEHLV-NH2 (not fully specified (residue 14)) [SEQ ID NO: 136]    7.9 -log M
2. H[Aib]EGTFTSDVSGLK([AEEA-AEEA-γGlu-C20 diacid])EEA[Aib]LQRFLEHLV-NH2 [SEQ ID NO: 167]    7 -log M

Now consider the entry below.
## Input Give its pEC50 hSCTR value. Item: H[Aib]EGTFTSDVSRLK([AEEA-AEEA-γGlu-C20 diacid])EEAAEQRFLEHLV-NH2 [SEQ ID NO: 22]
## Output 6.4 -log M
